Target: recombinant METTL3/METTL14 complex (Homo sapiens)
Test: METTL3/14 Scintillation Proximity Assay (SPA), RNA methyltransferase activity
Settings: 5.31 nM METTL3/14 complex, 250 nM RNA substrate, 1 μM 3H-SAM, 90 min; for compounds marked * best of the two separated forms
pIC50: −log10 of the molar value.

molecule	tested_system	pIC50
c1ncc(C2CC2)cc1-c1cn(C2(c3ccc(N4CCC[C@@H](NCC5CC5)C4)cn3)CNC2)nn1	recombinant METTL3/METTL14 complex (Homo sapiens)	≥ 7.30
CC(c1cnc(-c2cncc(N3CCCC3)n2)o1)n1ccc(N2CCC[C@@H](NCC3CC3)C2)cc1=O (single isomer, unassigned)	recombinant METTL3/METTL14 complex (Homo sapiens)	≥ 7.30
COC1CN(c2cncc(-c3cn(C(C)n4ccc(N5CCC[C@@H](NCC6CC6)C5)cc4=O)nn3)n2)C1 (single isomer, unassigned)	recombinant METTL3/METTL14 complex (Homo sapiens)	≥ 7.30
c1ncc(N2CCCC2)nc1-c1cn(C2(c3ccc(N4CCC[C@@H](NCC5CC5)C4)nn3)COC2)nn1	recombinant METTL3/METTL14 complex (Homo sapiens)	≥ 7.30
CC(c1cnn(-c2cncc(N3CCCC3)n2)c1)c1ccc(N2CCC[C@@H](NCC3CC3)C2)cn1 (single isomer, unassigned)	recombinant METTL3/METTL14 complex (Homo sapiens)	≥ 7.30
O=C(Nc1cc(=O)n2ccccc2n1)C1(c2ccc(N3CCC[C@@H](NCC4CC4)C3)nc2)COC1	recombinant METTL3/METTL14 complex (Homo sapiens)	≥ 7.30

* * *

Biological target: recombinant METTL3/METTL14 complex (Homo sapiens, UniProt Q86U44)
Sequence (Q86U44 whole entry): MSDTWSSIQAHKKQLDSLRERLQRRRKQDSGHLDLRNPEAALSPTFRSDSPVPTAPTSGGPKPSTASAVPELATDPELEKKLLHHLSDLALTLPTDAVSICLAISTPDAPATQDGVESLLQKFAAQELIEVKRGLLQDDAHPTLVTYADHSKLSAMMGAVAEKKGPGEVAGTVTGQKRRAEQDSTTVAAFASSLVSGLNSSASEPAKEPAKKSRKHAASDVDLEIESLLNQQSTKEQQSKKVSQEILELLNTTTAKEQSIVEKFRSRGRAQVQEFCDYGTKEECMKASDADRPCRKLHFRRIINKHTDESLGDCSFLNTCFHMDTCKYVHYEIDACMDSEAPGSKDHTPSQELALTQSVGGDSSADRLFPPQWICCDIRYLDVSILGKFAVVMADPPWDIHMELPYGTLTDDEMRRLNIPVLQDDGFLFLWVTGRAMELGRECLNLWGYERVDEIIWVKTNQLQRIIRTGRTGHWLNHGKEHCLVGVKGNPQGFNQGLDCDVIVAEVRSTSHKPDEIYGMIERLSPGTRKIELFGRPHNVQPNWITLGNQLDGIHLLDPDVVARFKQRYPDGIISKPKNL
Sequence (Q9HCE5 whole entry partner): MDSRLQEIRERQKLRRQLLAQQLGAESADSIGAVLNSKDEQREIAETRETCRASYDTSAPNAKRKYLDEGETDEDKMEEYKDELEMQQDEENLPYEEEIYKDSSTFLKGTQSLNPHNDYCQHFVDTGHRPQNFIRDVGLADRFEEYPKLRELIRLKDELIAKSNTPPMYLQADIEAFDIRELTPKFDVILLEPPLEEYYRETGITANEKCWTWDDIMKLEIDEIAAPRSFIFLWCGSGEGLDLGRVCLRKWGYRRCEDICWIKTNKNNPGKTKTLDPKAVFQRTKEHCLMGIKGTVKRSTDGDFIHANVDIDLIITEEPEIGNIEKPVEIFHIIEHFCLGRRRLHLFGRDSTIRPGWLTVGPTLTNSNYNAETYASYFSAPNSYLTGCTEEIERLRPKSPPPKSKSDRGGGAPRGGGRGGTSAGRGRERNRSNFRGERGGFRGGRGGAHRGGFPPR
Test: METTL3/14 Scintillation Proximity Assay (SPA), RNA methyltransferase activity
Conditions: 5.31 nM METTL3/14 complex, 250 nM RNA substrate, 1 μM 3H-SAM, 90 min; for compounds marked * best of the two separated forms
# maps each entry to its IC50

molecule	IC50
CC(n1cc(-c2cncc(N3CC4(COC4)C3)c2)nn1)n1ccc(N2CCC[C@@H](NCC3CCC3)C2)cc1=O (single isomer, unassigned)	≤ 50 nM
O=C(Nc1cc(=O)n2ccccc2n1)C1(c2ccc(N3CCC[C@@H](NCC4CCCC4)C3)cn2)COC1	≤ 50 nM
CC(n1cc(-c2cncc(N3CCCCC3)c2)nn1)n1ccc(N2CCC[C@@H](NCC3CCC3)C2)cc1=O (single isomer, unassigned)	≤ 50 nM
O=C(Nc1cncc(C2CCCC2)n1)C1(c2ccc(N3CCC[C@@H](NCC4CCC4)C3)cn2)COC1	≤ 50 nM
O=C(Nc1cncc(N2CCCC2)n1)C1(c2ccc(N3CCC[C@@H](NCC4CC4)C3)cn2)COC1	≤ 50 nM
COc1cncc(-c2nnn(C(C)c3ccc(N4CCC[C@@H](NCC5CCC5)C4)nn3)n2)c1 (single isomer, unassigned)	≤ 50 nM
CC(C(=O)Nc1cncc(N2CCCC2)c1)n1ccc(N2CCC[C@@H](NCC3CCC3)C2)cc1=O (stereo partly drawn)	≤ 50 nM
N#Cc1cncc(-c2cn(Cc3ccc(N4CCC[C@@H](NCC5CCC5)C4)nn3)nn2)c1	50 to 500 nM
c1ncc(N2CCCC2)cc1-c1cn(C2(c3ccc(N4CCC[C@@H](NCC5CC5)C4)nn3)COC2)nn1	≤ 50 nM
CC(n1cc(-c2cncc(N3CC4(CCC4)C3)c2)nn1)n1ccc(N2CCC[C@@H](NCC3CCC3)C2)cc1=O (single isomer, unassigned)	≤ 50 nM
O=C(Nc1cc(=O)n2ccccc2n1)C1(c2ccc(N3CCC[C@@H](NCC4CC(F)(F)C4)C3)cn2)COC1	≤ 50 nM
COc1cc(-c2cn(Cc3ncc(N4CCCC(NCC5CCC5)C4)cn3)nn2)c2cn[nH]c2c1 (stereo not drawn)	≤ 50 nM
O=c1cc(N2CCC[C@@H](NCC3CC3)C2)ccn1Cn1cc(-c2cncc(N3CCCC3)n2)nn1	≤ 50 nM
CC(n1cc(-c2cncc(N3CC(C(F)F)C3)c2)nn1)n1ccc(N2CCC[C@@H](NCC3CC3)C2)cc1=O (single isomer, unassigned)	≤ 50 nM
CC(n1cc(-c2cncc(N(C)C)c2)nn1)n1ccc(N2CCC[C@@H](NCC3CC3)C2)cc1=O (single isomer, unassigned)	≤ 50 nM
COc1cc(-c2cn(C(C)c3ccc(N4CCC[C@@H](NCC5CCC5)C4)nn3)nn2)c2cn[nH]c2c1 (single isomer, unassigned)	≤ 50 nM
c1cc(Cn2cc(-c3cncc(N4CCCC4)n3)nn2)ncc1N1CCC[C@@H](NCC2CCC2)C1	≤ 50 nM
COc1cncc(-n2cc(Cn3ccc(N4CCC[C@@H](NCC5CCC5)C4)cc3=O)cn2)c1	≤ 50 nM
COc1cncc(-c2cn(Cc3ccc(N4C[C@@H](F)C[C@@H](NCC5CCC5)C4)nn3)nn2)c1	≤ 50 nM
CC(n1cc(-c2cncc(N3CCN(C)C3=O)c2)nn1)n1ccc(N2CCC[C@@H](NCC3CCC3)C2)cc1=O (single isomer, unassigned)	≤ 50 nM
c1cc(N2CCC[C@@H](NCC3CCC3)C2)ccc1Cn1cc(-c2cncc(N3CC4CC4C3)n2)nn1 (stereo partly drawn)	≤ 50 nM
COc1cncc(-c2cn(C3(c4ccc(N5CCC[C@@H](NCC6CCC6)C5)nn4)CC3)nn2)c1	≤ 50 nM
FC1(CN[C@@H]2CCCN(c3ccc(C4(n5cc(-c6cncc(C7CC7)c6)nn5)COC4)nc3)C2)CC1	≤ 50 nM
CCN(C)c1cncc(-c2cn(C(C)n3ccc(N4CCC[C@@H](NCC5CCC5)C4)cc3=O)nn2)c1 (single isomer, unassigned)	≤ 50 nM
O=C(NCc1ccc(N2CCCC(N3CCC4(CC3)CC4)C2)nn1)c1cc(=O)n2ccccc2n1 (stereo not drawn)	50 to 500 nM
c1cc(N2CCC[C@@H](NCC3CCC3)C2)nnc1Cn1cc(-c2csc3cncn23)nn1	≤ 50 nM
CC(n1cc(-c2cncc(N3CCCC3)c2)nn1)n1ccc(N2CCC[C@@H](NCC3CC3)C2)cc1=O (single isomer, unassigned)	≤ 50 nM
